Values from patent EP1538159A1

pIC50: −log10 of the molar value.
Quick record of pIC50 values for UniProtKB P33032.
Sequence (P33032 whole entry): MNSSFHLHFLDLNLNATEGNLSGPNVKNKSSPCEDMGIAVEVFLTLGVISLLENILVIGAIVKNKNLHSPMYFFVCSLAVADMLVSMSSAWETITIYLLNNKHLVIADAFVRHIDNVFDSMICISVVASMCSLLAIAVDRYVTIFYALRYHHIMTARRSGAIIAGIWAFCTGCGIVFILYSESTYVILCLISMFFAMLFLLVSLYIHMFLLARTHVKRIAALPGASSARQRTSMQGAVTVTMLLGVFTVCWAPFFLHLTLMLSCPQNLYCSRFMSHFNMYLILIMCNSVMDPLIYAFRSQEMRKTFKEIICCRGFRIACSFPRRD
Assay Readout: pIC50

> print(dat)
                                   molecule  assay.readout  reported
1  NC1c2ccccc2CCC1C(=O)N[C@H](Cc1ccc(Cl)cc1)C(=O)N1CCN(c2ccccc2CN2CCCC2=O)CC1 (single isomer, unassigned)          pIC50      5.74
2  O=C(N[C@H](Cc1ccc(Cl)cc1)C(=O)N1CCC(c2ccccc2CN2CCCC2=O)CC1)C1CNC1 [WO030009847 Example 153, reference compound]          pIC50      5.48
3  O=C(N[C@H](Cc1ccc(Cl)cc1)C(=O)N1CCN(c2ccccc2CN2CCCC2=O)CC1)C1CNC1 [WO030009850 Example 166, reference compound]          pIC50      5.16
4  O=C(N[C@H](Cc1ccc(Cl)cc1)C(=O)N1CCN(c2ccccc2CN2CCCC2=O)CC1)[C@H]1Cc2ccccc2CN1          pIC50      5.89

----------
Test system hMC-4R (Homo sapiens, UniProt P32245), pIC50 listed for each of the molecules.
pIC50: −log10 of the molar value.
Assay Readout: pIC50

Molecule	Reported
NC1c2ccccc2CCC1C(=O)N[C@H](Cc1ccc(Cl)cc1)C(=O)N1CCN(c2ccccc2CN2CCCC2=O)CC1 (single isomer, unassigned)	7.68
CS(=O)(=O)Nc1ccccc1N1CCN(C(=O)[C@@H](Cc2ccc(Cl)cc2)NC(=O)C2CNC2)CC1 [WO030009850 Example 34, reference compound]	5.54
NC1c2ccccc2CCC1C(=O)N[C@H](Cc1ccc(Cl)cc1)C(=O)N1CCC(c2ccccc2CN2CCCC2=O)CC1 (single isomer, unassigned) [Example 2A]	7.77
O=C(N[C@H](Cc1ccc(Cl)cc1)C(=O)N1CCN(c2ccccc2CN2CCCC2=O)CC1)C1CNC1 [WO030009850 Example 166, reference compound]	6.96
CS(=O)(=O)Nc1ccccc1N1CCN(C(=O)[C@@H](Cc2ccc(Cl)cc2)NC(=O)[C@H]2Cc3ccccc3CN2)CC1 [WO030009850 Example 1, reference compound]	6.30
O=C(N[C@H](Cc1ccc(Cl)cc1)C(=O)N1CCN(c2ccccc2CN2CCCC2=O)CC1)[C@H]1Cc2ccccc2CN1	7.54
O=C(N[C@H](Cc1ccc(Cl)cc1)C(=O)N1CCC(c2ccccc2CN2CCCC2=O)CC1)C1CNC1 [WO030009847 Example 153, reference compound]	7.40
NC1c2ccccc2CCC1C(=O)N[C@H](Cc1ccc(Cl)cc1)C(=O)N1CCC(c2ccccc2CN2CCCC2=O)CC1 (single isomer, unassigned) [Example 2B]	8.15
